meta.source: patent US10487068B2

Molecular target: RORc ligand binding domain (Homo sapiens)
Sequence (P51449 269-508 limits assumed): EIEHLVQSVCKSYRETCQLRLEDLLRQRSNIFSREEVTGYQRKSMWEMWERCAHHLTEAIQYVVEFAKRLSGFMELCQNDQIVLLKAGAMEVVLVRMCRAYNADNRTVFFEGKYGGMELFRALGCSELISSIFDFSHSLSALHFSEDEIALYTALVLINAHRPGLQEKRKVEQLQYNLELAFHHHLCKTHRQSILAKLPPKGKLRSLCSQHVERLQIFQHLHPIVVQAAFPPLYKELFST
pIC50: −log10 of the molar value.
metric: pIC50

[a] CC1(C)[C@H]2CC[C@]1(c1ccnc(C3CCCN(C(=O)CO)C3)n1)c1nnc(-c3c(F)cccc3F)cc12 (stereo partly shown)
[b] CC1(C)[C@H]2CC[C@]1(c1cccc(S(=O)(=O)NCC3(O)COC3)n1)c1nnc(-c3c(F)cccc3F)cc12
[c] CC(C)(C)OC(=O)N1CC=C(c2nccc([C@@]34CC[C@@H](c5cc(-c6c(F)cccc6F)nnc53)C4(C)C)n2)CC1
**Query** Sort the entries above by pIC50, smallest first. Returns: the labels listed in the requested order.
**Result** a, b, c

[P] C[C@@H](CO)NC(=O)c1cccc([C@@]23CC[C@@H](c4cc(-c5c(F)cccc5F)nnc42)C3(C)C)n1
[Q] CC1(C)[C@H]2CC[C@]1(c1c[nH]c(=O)cn1)c1nnc(-c3c(F)cccc3F)cc12
**Query** Of the pair P and Q , name the member with the lesser recorded pIC50. Returns: label corresponding to the selected item.
**Result** Q

[P] CC1(C)[C@H]2CC[C@]1(c1ccnc(NC[C@H](O)CO)n1)c1nnc(-c3c(F)cccc3F)cc12
[Q] CC(=O)NCc1cncc([C@@]23CC[C@@H](c4cc(-c5c(F)cccc5F)nnc42)C3(C)C)n1
**Query** Quick check, higher pIC50 between P and Q ? Returns: label corresponding to the selected item.
**Result** P
